Exercise: for every item that follows, state its recorded efflux ratio.
- assay explanation: MDCK wild type permeability/efflux
- assay setup: dog
In your answer, state the number alone without any accompanying words.

Per the records, this compound ( Cc1nc(Nc2ncc(C(=O)Nc3c(CF)csc3Cl)s2)cc(N2CCN(C)C(C)C2)n1 (racemic) [Compound E10] ) has efflux ratio equal to 1.6

Per the records, this compound ( Cc1nc(Nc2ncc(C(=O)Nc3c(C(F)F)csc3Cl)s2)cc(N2CCN(CCO)CC2)n1 [Compound E4] ) has efflux ratio equal to 4.1

Per the records, this compound ( Cc1nc(Nc2ncc(C(=O)Nc3c(CF)csc3Cl)s2)cc(N2CCN(CCO)CC2)n1 [Compound E3] ) has efflux ratio equal to 4.3

Per the records, this compound ( Cc1nc(Nc2ncc(C(=O)Nc3c(CF)csc3Cl)s2)cc(N2CCCN(C)CC2)n1 [Compound E11] ) has efflux ratio equal to 2.6

Per the records, this compound ( Cc1nc(Nc2ncc(C(=O)Nc3c(CF)csc3Cl)s2)cc(N2CCN(C)CC2)n1 [Compound E9] ) has efflux ratio equal to 1

====

Exercise: for every item that follows, state its recorded efflux ratio.
- target entity: MDR1 (P-gp) (Homo sapiens (Human))
- assay explanation: MDR1-MDCK effective efflux assay
- assay setup: dog, MDCK-MDR1, MDCK-MDR1 cells, Mean Efflux Ratio (MDR1), Table 5.1B
In your answer, state the number alone without any accompanying words.

Per the records, this compound ( Cc1nc(Nc2ncc(C(=O)Nc3c(CF)csc3Cl)s2)cc(N2CCCN(C)CC2)n1 [Compound E11] ) has efflux ratio equal to 61

Per the records, this compound ( Cc1nc(Nc2ncc(C(=O)Nc3c(CF)csc3Cl)s2)cc(N2CCN(CCO)CC2)n1 [Compound E3] ) has efflux ratio equal to 53

====

- target entity: SIK3 (Homo sapiens (Human), UniProt Q9Y2K2)
- assay explanation: SIK3 kinase inhibition (IC50)
- assay setup: read-out: Kinase: IC50 (nM) SIK3
Exercise: for every item that follows, state its recorded IC50.

Per the records, this molecule ( Cc1nc(Nc2ncc(C(=O)Nc3c(C(F)F)csc3Cl)s2)cc(N2CCN(C)CC2)n1 [Compound E13] ) has IC50 equal to < 20 nM

Per the records, this molecule ( Cc1nc(Nc2ncc(C(=O)Nc3c(C(F)F)csc3Cl)s2)cc(N2CCN(CCO)CC2)n1 [Compound E4] ) has IC50 equal to < 20 nM

Per the records, this molecule ( Cc1nc(Nc2ncc(C(=O)Nc3c(CF)csc3Cl)s2)cc(N2CCN(C)CC2)n1 [Compound E9] ) has IC50 equal to < 20 nM

====

Exercise: for every item that follows, state its recorded AUC(0-t).
- assay explanation: in vivo
- assay setup: male, CD1, mouse, po, 30 mg/kg
Field: numeric (µM·h). Do not append units.

Per the records, this molecule ( Cc1nc(Nc2ncc(C(=O)Nc3c(CF)csc3Cl)s2)cc(N2CCN(C)CC2)n1 ) has AUC(0-t) equal to 9.58

Per the records, this molecule ( Cc1nc(Nc2ncc(C(=O)Nc3c(C)csc3Cl)s2)cc(N2CCN(CCO)CC2)n1 ) has AUC(0-t) equal to 1.16

Per the records, this molecule ( Cc1nc(Nc2ncc(C(=O)Nc3c(CF)csc3Cl)s2)cc(N2CCN(C)C(C)C2)n1 (racemic) ) has AUC(0-t) equal to 5.92

Per the records, this molecule ( Cc1nc(Nc2ncc(C(=O)Nc3c(C(F)F)csc3Cl)s2)cc(N2CCN(CCO)CC2)n1 ) has AUC(0-t) equal to 5.48
